Test: chemical genetic growth profiling, strain panel (AID 1159580);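 further: tested at 20 µM; growth read once vehicle control cultures reached saturation at 30 °C; 1 = growth at the plate median or of vehicle wells; lower values mean less growth of the strain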
Conditions: S. cerevisiae deletion strains, growth OD, locus YLL001W, strain dnm1, active compounds read low
In all, about 5,500 compounds went through this assay and about 2,000 (36%) were called active. Roughly 18% stayed inconclusive and do not appear here. Some of the results follow.
valueType: normalized growth
# respond with the number and nothing more

Req: Hello, please tell me recorded normalized growth for this one: "Cc1cc(=O)c2c(O)c(C)c(O)cc2o1"
Resp: 1.02

Req: Hello, please tell me recorded normalized growth for this one: CC(C)CC1C(=O)N2CCC[C@H]2C2(O)O[C@](NC(=O)C3C=C4c5cccc6[nH]c(Br)c(c56)C[C@H]4N(C)C3)(C(C)C)C(=O)N12 (stereo partly drawn)
Resp: 0.988

Req: Hello, please tell me recorded normalized growth for this one: CN1CCc2cc3c(cc2C1O)OCO3 (stereo not drawn)
Resp: 0.983
